Listing of entries alongside the reported kon.
Target: T1, recombinant human Trop-2/Fc/His fusion protein (manufactured by R&D) (human, UniProt P09758 27-274, limits assumed)
T1 construct: Bought reagent; also called Trop-2/Fc/His chimeric protein; recombinant Trop-2
T1 sequence: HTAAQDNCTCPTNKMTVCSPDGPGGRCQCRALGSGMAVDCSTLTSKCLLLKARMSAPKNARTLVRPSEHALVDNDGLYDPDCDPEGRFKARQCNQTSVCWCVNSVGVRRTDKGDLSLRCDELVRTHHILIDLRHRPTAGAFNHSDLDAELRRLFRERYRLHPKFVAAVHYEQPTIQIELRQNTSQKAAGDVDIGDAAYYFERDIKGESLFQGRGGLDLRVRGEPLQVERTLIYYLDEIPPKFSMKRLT
Assay: SPR (Biacore T100), Trop-2/Fc/His captured by Tetra-His antibody, antibody as analyte, Bivalent Analyte model, mean of duplicates
measurementName: kon (M⁻¹ s⁻¹)

binder="KM4097 humanized antibody HV10LV2 (antibody, V domains shown, Expressed from pKANTEX93 (human constant regions) in FUT8 knockout CHO cells; no fucose attached) VH: QVQLVQSGPEVVKPGASVKISCKASGYTFTIYWLGWVKQAPGQGLEWIGNIFPGSAYINYNEKFKGKATLTADTSTSTAYMELSSLRSEDTAVYFCAREGSNSGYWGQGTLLTVSS VL: DIVMTQSPDSLAVSLGERVTINCKSSQSLLNSGNQQNYLAWYQQKPGQPPKLLIYGASTRESGVPDRFSGSGSGTDFTLTISSVQAEDVAVYYCQSDHIYPYTFGQGTKLEIK" measurementname=kon resultvalue=375000
binder="KM4097 humanized antibody HV3aLV0 (antibody, V domains shown, Expressed from pKANTEX93 (human constant regions) in FUT8 knockout CHO cells; no fucose attached) VH: QVQLVQSGPEVKKPGASVKVSCKASGYTFTIYWLGWVRQAPGQGLEWMGNIFPGSAYINYNEKFKGKVTITADTSTSTAYMELSSLRSEDTAVYFCAREGSNSGYWGQGTLVTVSS VL: DIVMTQSPDSLAVSLGERATINCKSSQSLLNSGNQQNYLAWYQQKPGQPPKLLIYGASTRESGVPDRFSGSGSGTDFTLTISSLQAEDVAVYYCQSDHIYPYTFGQGTKLEIK" measurementname=kon resultvalue=506000
